B1: Twister Ribozyme (parent)
chain: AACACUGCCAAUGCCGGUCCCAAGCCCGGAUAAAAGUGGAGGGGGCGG

- Variants of: B1
- PROTOCOL DESCRIPTION: self-cleavage, relative activity (ratio to wild type); higher = more cleavage; co-transcriptional
Assign true whenever self-cleavage does not fall below 0.4; assign false whenever it does.

Use these answered entries as a reference point.
AGCACUGCCAAUGCCGGUCCCAAGGCCGGAUAAAAGUGGAGGGGGCGG ... false
AACACUGCCAAUGCCGGUCCCAAGCCCGUAUAAAAGUGAAGGGGGCGG ... true
AACACUGCCAAUGCCGGUCCCAUGCCCGGAUAAAGGUGGAGGGGGCGG ... false
AACACUGCCAAUGCCGGUCGCAACCCCGGAUAAAAGUGGAGGGGGCGG ... false
AACACUGCCAGUGCCGGUCCCAGGCCCGGAUAAAAGUGGAGGGGGCGG ... true

Please tell me: is the variant AACACUGCCAAUGCCGGUUCCAAGCCCGGGUAAAAGUGGAGGGGGCGG at or over 0.4 in terms of self-cleavage?
true

Please check the record AACACUGCCAAUGCCGGUCCCAAGCCCGGAUAAAAGUGAAGGGGGCGA and state if its self-cleavage is at or above 0.4.
false

hey, is self-cleavage for this one >= 0.4? AACACUGCCAAUGCCGGUCCCAAGCCCGGAUAAUAGUGGGGGGGGCGG
false

Quick check: does AACACUGCCAAUGCCGGUCCCAAGCCCCGAUAAAAGCGGAGGGGGCGG have self-cleavage greater than or equal to 0.4?
false

# check: self-cleavage of AACACUGCCGAUGCCGGUCCCAAGCGCGGAUAAAAGUGGAGGGGGCGG is greater than or equal to 0.4
false

Item AACACCGCCAAUGCCGGUCCCGAGCCCGGAUAAAAGUGGAGGGGGCGG with self-cleavage of 0.4 or above?
false

Check the entry AACACUGCCAAUGCCGGUCCAAAGCCCGGAUAAAAGUGGAAGGGGCGG : does self-cleavage equal or exceed 0.4?
false

Reported self-cleavage at or above 0.4? AACACUGCCAAUGCCGGGCCCAAACCCGGAUAAAAGUGGAGGGGGCGG
false

Say whether AACACUGCCAGUGCCGGUCCCAAGCCCGGAUAAAAGUCGAGGGGGCGG shows self-cleavage of 0.4 or more.
true
